molecular target: MEK1 (Homo sapiens, UniProt Q02750); construct: purchased Upstate (Charlottesville, Va.); assay: Broad selectivity panel, 32P incorporation; type: biochemical; details: 1 μM compound, 40 μM ATP; read-out: Percent inhibition MEK1
Sequence (Q02750 whole entry, species assumed): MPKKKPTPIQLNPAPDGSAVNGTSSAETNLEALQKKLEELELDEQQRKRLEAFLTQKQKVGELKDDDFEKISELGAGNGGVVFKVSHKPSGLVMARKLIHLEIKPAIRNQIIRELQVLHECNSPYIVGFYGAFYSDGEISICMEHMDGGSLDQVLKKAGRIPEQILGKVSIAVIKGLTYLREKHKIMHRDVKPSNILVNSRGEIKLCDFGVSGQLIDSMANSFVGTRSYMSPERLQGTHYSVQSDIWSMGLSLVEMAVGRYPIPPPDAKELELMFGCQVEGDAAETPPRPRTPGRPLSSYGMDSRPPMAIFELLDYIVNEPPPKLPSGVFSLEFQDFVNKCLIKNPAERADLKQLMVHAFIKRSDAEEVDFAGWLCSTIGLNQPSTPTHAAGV
Value type: inhibition at 1 µM (%)
All answers are understood in %, so give the number only.

Answered examples (6):
molecule="Fc1ccc(-c2nc3occn3c2-c2ccnc(N[C@@H]3CN4CCC3CC4)n2)cc1 [LXXI]" unit_abbrev=% endpoint_value=6
molecule="CC(=O)N1CCC(Nc2nccc(-c3c(-c4ccc(F)cc4)nc4occn34)n2)CC1 [CCLXXVIII]" unit_abbrev=% endpoint_value=13
molecule="Fc1ccc(-c2nc3occn3c2-c2ccnc(N[C@H]3CN4CCC3CC4)n2)cc1 [LXXXVII]" unit_abbrev=% endpoint_value=-1
molecule="CN1[C@@H]2CC[C@H]1C[C@@H](Nc1nccc(-c3c(-c4ccc(F)cc4)nc4occn34)n1)C2 [CCLXXXI]" unit_abbrev=% endpoint_value=7
molecule="Fc1ccc(-c2nc3occn3c2-c2ccnc(NC3CCNCC3)n2)cc1 [CCLXXX]" unit_abbrev=% endpoint_value=13
molecule="CN(C)CC(C)(C)CNc1nccc(-c2c(-c3ccc(F)cc3)nc3occn23)n1 [CXIX]" unit_abbrev=% endpoint_value=2

// next item, inhibition at 1 µM requested
// inhibition at 1 µM lookup, key: CS(=O)(=O)N1CCC(Nc2nccc(-c3c(-c4ccc(F)cc4)nc4occn34)n2)CC1 [CCLXXIX]
11

Reference for the values: patent US20070270418A1
